- Target Entity: T1, recombinant cynomolgus PDL1 (cynomolgus monkey, UniProt G7PSE7 19-238)
- T1 construct: also called cynom; PDL1
- T1 sequence (G7PSE7 entry or part of it): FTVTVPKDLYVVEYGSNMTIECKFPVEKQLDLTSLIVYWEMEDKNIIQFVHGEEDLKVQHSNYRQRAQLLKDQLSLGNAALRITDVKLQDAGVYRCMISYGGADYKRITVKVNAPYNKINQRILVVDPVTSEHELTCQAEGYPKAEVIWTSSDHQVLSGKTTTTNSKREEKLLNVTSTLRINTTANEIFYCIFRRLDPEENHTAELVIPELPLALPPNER
- Protocol: SPR
Property: koff (s⁻¹)

* PRO3891 (scFv, anti-PDL1 scFv) scFv: DIQMTQSPSSLSASVGDRVTITCQASQSINDYLAWYQQKPGKAPKLLIYKGGTLASGVPSRFSGSGSGTDFTLTISSLQPEDFATYYCQQGYIITDIDNVFGTGTKVTVLGGGGGSGGGGSGGGGSGGGGSQVQLQESGPGLVKPSETLSLTCKASGFSFSSGYDMCWVRQPPGKGLEWIACVVAGSVDITYYASWAKGRVTISKDSSKNQVSLKLSSVTAADSAVYYCARKDAYSDAFNLWGQGTLVKVSS | 2.9e-05
* PRO4245 (scFv, anti-PDL1 scFv) scFv: DIQMTQSPSSLSASVGDRVTITCQASQSIGTYLAWYQQKPGKPPKLLIYRGGILASGVPSRFSGSGSGTDFTLTISSLQPEDFATYYCQSNFYSDSTTIGPNAFGTGTKVTVLGGGGGSGGGGSGGGGSGGGGSQQLVESGGGLVQPGGSLRLSCAASGFSFNSDYWIYWVRQAPGKGLEWIASIYGGSSGNTQYASWAQGRFTISKDNSKNTVYLQMNSLRAEDSAVYFCARGYVDYGGATDLWGQGTLVKVSS | 0.00014
* PRO1392 (scFv, anti-PDL1 scFv (VL-linker-VH); also called 33-03-G02-sc18) scFv: DIQMTQSPSSLSASVGDRVTITCQASQSINDYLAWYQQKPGKAPKLLIYKASTLASGVPSRFSGSGSGTDFTLTISSLQPEDFATYYCQQGYIITDIDNVFGTGTKVTVLGGGGGSGGGGSGGGGSGGGGSQVQLQESGPGLVKPSETLSLTCKASGFSFSSGYDMCWVRQPPGKGLEWIACVVAGSVDITYYASWAKGRVTISKDSSKNQVSLKLSSVTAADTAVYYCARKDAYSDAFNLWGQGTLVTVSS | 3.4e-05
